Measured GI50 by item
Tested on: MDA-MB-231
Test: NCI tumour cell line growth inhibition, 48 h
Active and inactive are the calls of the source. No stated cut-off is given here; in the data, active = GI50 up to about 1.1 µM and inactive = higher.

{"Compound": "CCN1CCC(O)(/C=C/c2ccccc2C)C(C(=O)/C=C/c2ccccc2C)C1 (centres undefined)", "GI50": "2.55 µM (inactive)"}
{"Compound": "CCCNC(=O)CCC(C)C1CCC2C3C(C[C@H](OC(C)=O)[C@]12C)[C@@]1(C)CCC2(C[C@H]1C[C@H]3OC(C)=O)OOC1(CC[C@]3(C)C4C[C@H](OC(C)=O)[C@]5(C)C(C(C)CCC(=O)NCCC)CCC5C4[C@H](OC(C)=O)C[C@@H]3C1)OO2 (some centres undefined)", "GI50": "11.3 µM (inactive)"}
{"Compound": "Cn1cc(NC(=O)c2cc(NC(=O)c3cc(NC=O)cn3C)cn2C)cc1C(=O)NCCC(=N)N", "GI50": "> 100 µM (inactive)"}
{"Compound": "COC(=O)c1c2n(c3ccccc13)C[C@H]1OC(C)(C)O[C@@H]21", "GI50": "> 100 µM (inactive)"}

====

Tested on: UO-31
Test: NCI tumour cell line growth inhibition, 48 h
Active and inactive are the calls of the source. Rule as the data show it: active = GI50 up to about 1.1 µM and inactive = higher.
Outcome codes: T (active), F (inactive)

{"Compound": "CCOc1ccc(NC(=O)CC2SC(Nc3ccc(C)cc3C)=NC2=O)cc1 (configuration not stated)", "System under test": "UO-31", "Label": "F"}
{"Compound": "COc1ccccc1NC(=O)C(=O)Cc1cnc2ccccc2n1", "System under test": "UO-31", "Label": "F"}
{"Compound": "CC(=O)OC1OC(c2ccoc2)C[C@@]12C1CCC3O[C@]3(C)[C@]1(C)C[C@H](OC(C)=O)[C@H]2C (some centres not stated)", "System under test": "UO-31", "Label": "F"}
{"Compound": "COCCN(CCOC)C(=O)COc1c2cc(C(C)(C)C)cc1Cc1cc(C(C)(C)C)cc(c1OCC(=O)N(CCOC)CCOC)Cc1cc(C(C)(C)C)cc(c1OCC(=O)N(CCOC)CCOC)Cc1cc(C(C)(C)C)cc(c1OCC(=O)N(CCOC)CCOC)Cc1cc(C(C)(C)C)cc(c1OCC(=O)N(CCOC)CCOC)C2", "System under test": "UO-31", "Label": "T"}
{"Compound": "CCOC(=O)C1=C(Cl)c2cccnc2C1=O", "System under test": "UO-31", "Label": "F"}
{"Compound": "C#CCN(C(=O)C(F)(F)F)c1ccc(C(=O)c2ccc(N(CC#C)C(=O)C(F)(F)F)cc2)cc1", "System under test": "UO-31", "Label": "F"}
{"Compound": "COc1cc2ccc3c4cc(OC)c(OC(C)C)cc4cnc3c2cc1OC", "System under test": "UO-31", "Label": "F"}

====

System: U-251
Experiment: NCI tumour cell line growth inhibition, 48 h
Active and inactive are the calls of the source. Cut-off read from the data, not from the text of the source: active = GI50 up to about 1.1 µM and inactive = higher.
Entries annotated with measured GI50

{"Compound": "CO[C@@]12CC(=O)/C(=C(O)\\C=C\\c3ccccc3)C(=O)[C@]1(OC)Cc1ccccc1O2", "GI50": "21.1 µM (inactive)"}
{"Compound": "O=P1(C(O)c2ccccc2)N(Cc2ccccc2)[C@@H]2CCCC[C@H]2N1Cc1ccccc1 (stereo partly specified)", "GI50": "31.3 µM (inactive)"}
{"Compound": "Cc1cc(Cl)nc2nc(Cl)c(N)cc12", "GI50": "2.05 µM (inactive)"}
{"Compound": "CCOC(=O)C(Cc1c[nH]c2cc([N+](=O)[O-])ccc12)NS(=O)(=O)c1ccc2ccccc2c1 (stereo unspecified)", "GI50": "17.6 µM (inactive)"}
{"Compound": "CC(=O)NCCCCN(CCCNC(C)=O)C(=O)CNS(=O)(=O)c1cccc2c(N(C)C)cccc12", "GI50": "> 100 µM (inactive)"}
{"Compound": "OCCOCn1nc(-c2ccccc2)nc1-c1cnccn1", "GI50": "> 100 µM (inactive)"}

====

Tested on: SNB-19
Test: NCI tumour cell line growth inhibition, 48 h
Calls of active or inactive are those of the source. Cut-off read from the data, not from the text of the source: active = GI50 up to about 1.1 µM and inactive = higher.
Labels: TRUE for active, FALSE for inactive

{"Compound": "Cc1nc(C)c(N2CCN(Cc3ccccc3)CC2)c(O)n1", "Label": "FALSE"}
{"Compound": "O=C(NCCNCCO)N/N=C/c1ccccc1", "Label": "FALSE"}
{"Compound": "CN(C)CCNC(=O)c1c(O)ccc2c1c1c(n2CCc2ccccc2)C(=O)c2ccccc2C1=O", "Label": "FALSE"}
{"Compound": "CC1=CCC(C(C)(C)NC(=O)c2ccccc2)C/C1=N/O (stereo not drawn)", "Label": "FALSE"}
{"Compound": "Cc1cc2c(cc1Cl)SC(c1ccccc1O)NS2(=O)=O (stereo not drawn)", "Label": "FALSE"}
{"Compound": "CCOc1ccc(NC2=NC(=O)C(CC(=O)Nc3ccccc3[N+](=O)[O-])S2)cc1 (stereo not drawn)", "Label": "FALSE"}
{"Compound": "N#CC(c1ccccc1)N(CCCCCCN(C(=O)c1ccccc1)C(C#N)c1ccccc1)C(=O)c1ccccc1 (stereo not drawn)", "Label": "FALSE"}
{"Compound": "O=C(c1ccco1)N(C(=S)OCc1ccccn1)c1ccccc1", "Label": "FALSE"}
{"Compound": "CC(=O)NC(CC(C)C)C(=O)NC(Cc1ccccc1)C(=S)N1CCCC1 (stereo not drawn)", "Label": "FALSE"}
{"Compound": "CN1c2ccc(Cl)cc2C(=O)NC1c1ccc([N+](=O)[O-])s1 (stereo not drawn)", "Label": "FALSE"}
{"Compound": "COC(=O)C1OC(Oc2cc(O)c3c(=O)cc(-c4ccc(O)cc4)oc3c2)C(O)C(O)C1O (stereo not drawn)", "Label": "FALSE"}
{"Compound": "Cc1cc(C)n(-c2ccnc3cc(Cl)ccc23)n1", "Label": "FALSE"}
{"Compound": "O=C(O)C1CCCN(CCc2c[nH]c3ccccc23)C1 (stereo not drawn)", "Label": "FALSE"}
{"Compound": "O=P1(C(O)c2ccccc2)N(Cc2ccccc2)[C@@H]2CCCC[C@H]2N1Cc1ccccc1 (stereo partly drawn)", "Label": "FALSE"}
{"Compound": "COc1ccc(-c2c(C#N)c(=O)nc(SC)n2C2OCC(OC(C)=O)C(OC(C)=O)C2OC(C)=O)cc1 (stereo not drawn)", "Label": "FALSE"}
{"Compound": "O=C(NC1C(O)C(O)C(CO)OC1n1cc(F)c(=O)[nH]c1=O)OCc1ccccc1 (stereo not drawn)", "Label": "FALSE"}
{"Compound": "COc1c2c(c(O)c3c4c(c(C)cc13)C1OC3(C(OC)OC5CC(C)(O)C(OC6CC(C)(O)C(O)C(C)O6)C(C)O5)OC1C(OC)(O4)C31CO1)C(=O)C(O)CC2OC1CC(C)(O)C(OC(C)=O)C(C)O1 (stereo not drawn)", "Label": "TRUE"}
{"Compound": "CC(=O)OC1OC(c2ccoc2)C[C@@]12C1CCC3O[C@]3(C)[C@]1(C)C[C@H](OC(C)=O)[C@H]2C (stereo partly drawn)", "Label": "FALSE"}

====

System: A549
Assay: NCI tumour cell line growth inhibition, 48 h
Activity calls are given as the source filed them. Cut-off read from the data, not from the text of the source: active = GI50 up to about 1.1 µM and inactive = higher.
Outcome codes: Y = active, N = inactive

{"Compound": "CC1=NN2C(=O)CC(=O)N=C2S1", "Label": "N"}
{"Compound": "C=C1C(=O)C2=C[C@H]1C[C@H](O)C(=O)[C@]1(C)CCCC(C)(C)[C@H]1C[C@H]2O", "Label": "Y"}
{"Compound": "CN1CCC/C1=C1\\C(=O)c2cccn2C1=O", "Label": "N"}
{"Compound": "CC1=CCC(C(C)(C)NC(=O)c2ccccc2)C/C1=N/O (configuration not stated)", "Label": "N"}
{"Compound": "Cc1c(O)c(O)cc[n+]1C1OC(CO)C(O)C1O (configuration not stated)", "Label": "N"}
{"Compound": "C=CCN1C(=O)CS/C1=N/NC(=O)C(O)(c1ccccc1)c1ccccc1", "Label": "N"}
{"Compound": "O=C(/N=N/c1ccc([N+](=O)[O-])cc1)NNc1ccc([N+](=O)[O-])cc1", "Label": "N"}
{"Compound": "N#CC(C#N)=C1C(=Cc2ccc(OCCCCCCCCCCSSCCCCCCCCCCOc3ccc(C=C4C(=C(C#N)C#N)c5ccccc5C4=C(C#N)C#N)cc3)cc2)C(=C(C#N)C#N)c2ccccc21", "Label": "N"}
{"Compound": "Oc1cc(C2OCCCO2)cc(O)c1O", "Label": "N"}
{"Compound": "Clc1ccc(/C=c2\\nc(-c3ccccc3)n3c2nc2ccccc23)cc1", "Label": "N"}
{"Compound": "CCOC(=O)C(CC(C)C)NC(=O)CSc1nnc(COc2ccc(Cl)cc2)n1-c1ccccc1 (configuration not stated)", "Label": "N"}
{"Compound": "COc1ccc(CCNCCCC2c3ccccc3-c3ccccc32)cc1OC", "Label": "N"}
{"Compound": "Cc1ccc(C)n2c1nc1ccc3ccccc3c12", "Label": "N"}
{"Compound": "Nc1c2ccccc2nc2c1ccc1ncccc12", "Label": "N"}
{"Compound": "N#C/C(=C\\c1ccc2[nH]ccc2c1)C(=O)c1ccc(O)c(O)c1", "Label": "N"}
{"Compound": "CCOC(=O)c1c2ccccc2n2c(=O)n(-c3ccccc3)nnc12", "Label": "N"}
{"Compound": "CCCCC(NC(=O)CC)C(=O)O (configuration not stated)", "Label": "N"}
{"Compound": "C=Cc1c(C)c(OC)cc2c1Oc1ccc(OC)c(C)c1CC2", "Label": "N"}
{"Compound": "Cc1cc(C)n(C(=O)CSc2nnc(SCC(=O)n3nc(C)cc3C)s2)n1", "Label": "N"}
{"Compound": "CCOC(=O)C1(C(=O)OCC)CCCN1C(=O)[C@H](CNC(=O)OC(C)(C)C)NC(=O)OCc1ccccc1", "Label": "N"}
{"Compound": "COc1cc(/C=N\\O[Si](C)(C)C(C)(C)C)ccc1O[Si](C)(C)C(C)(C)C", "Label": "N"}
{"Compound": "S=C(N/N=C/c1ccccn1)Nc1ccc(Cl)cc1", "Label": "Y"}
{"Compound": "O=C1NC(c2cccc3ccccc23)Nc2ccc(O)cc21 (configuration not stated)", "Label": "N"}
{"Compound": "COc1ccc2cc(C(C)C(O)c3cc(F)c(F)c(F)c3F)ccc2c1 (configuration not stated)", "Label": "N"}
{"Compound": "CC1=C(C#N)C(=O)N(/N=C/c2ccc(Cl)cc2)C(=O)/C1=c1\\o/c(=C2/C(=O)N(/N=C/c3ccc(Cl)cc3)C(=O)C(C#N)=C2C)c2nccnc12", "Label": "N"}
{"Compound": "NC(=O)c1coc(C2OC(CO)C(O)C2O)n1 (configuration not stated)", "Label": "N"}
{"Compound": "CC(C)NC(C)Cc1ccccc1 (configuration not stated)", "Label": "N"}
{"Compound": "COC(=O)[C@]1(c2cc3ccccc3n2S(=O)(=O)c2ccccc2)CC2CN(C(=O)OCc3ccccc3)C1C1OC(C)(C)OC21 (some centres not stated)", "Label": "N"}
{"Compound": "C/N=c1\\ss/c(=N\\C(=S)N(C)C)n1C", "Label": "N"}
{"Compound": "CCOC(=O)C1=C(Cl)c2cccnc2C1=O", "Label": "N"}
{"Compound": "CCOC(=O)NN(C(=O)OCC)C(C(=O)c1ccc(Cl)cc1)=C1NCCN1", "Label": "N"}
{"Compound": "C#Cc1nc(N)c2ncn(C3OC(COS(N)(=O)=O)C(O)C3O)c2n1 (configuration not stated)", "Label": "Y"}
{"Compound": "O=C1c2ccccc2CN1c1ccc(OCCN2CCCCC2)cc1", "Label": "N"}
{"Compound": "CC(C)=CC(=O)c1[nH]c2ccccc2c1CC(=O)NCCc1cncn1C", "Label": "N"}
{"Compound": "CNc1cccc(-c2cc(O)c3cc4c(cc3n2)OCO4)c1", "Label": "Y"}
{"Compound": "COc1ccc(/C=C/c2cnccn2)cc1OC", "Label": "N"}
{"Compound": "O=C(O)C1C2CCC(O2)C1C(=O)N1CCCCC1 (configuration not stated)", "Label": "N"}
{"Compound": "CS/C(=N\\Nc1cnc2ccccc2n1)NS(=O)(=O)c1cc(C)c(Cl)cc1Cl", "Label": "N"}
{"Compound": "[O-][S+](Nc1ccccc1)c1ccc(N2CCOCC2)cc1 (configuration not stated)", "Label": "N"}
{"Compound": "CN1CCN(Cc2nc3c(s2)CCc2sccc2-3)CC1", "Label": "N"}
{"Compound": "CC(C)(C)[Si](C)(C)OC1CCOC1(O)c1ccccn1 (configuration not stated)", "Label": "N"}
{"Compound": "CSc1ccc(NC(=O)CCl)cc1", "Label": "N"}
